Hello, the source for this data is patent US7189714B2, in case you need it.

Molecular target: N-type calcium channel (Homo sapiens)
Assay: N-channel FLIPR assay (inhibition of K+-evoked calcium flux in differentiated IMR32 cells)
Details: 80 mM K+ stimulus
Quick reference: IC50 of the listed items.
Numeric only. Scale: nM

Which IC50 reading was recorded for the compound `CNc1cc(-c2cccc(F)c2)nc2ccc(NC3CC3)cc12` ?
1800

Sample `Nc1ccc2nc(COc3ccccc3)cc(N)c2c1` — what was its IC50?
2590

Which value of IC50 has been reported for `CC(C)Nc1ccc2nc(-c3cccc(F)c3)cc(N(C)C)c2c1` in the records?
2820

Please look at the following compound next.
Query (compound): `Nc1ccc2nc(-c3cccc(Br)c3)cc(N)c2c1` ; field requested: IC50
2540

====

Molecular target: N-type calcium channel (Homo sapiens)
Test: N-channel FLIPR assay (inhibition of K+-evoked calcium flux in differentiated IMR32 cells)
Details: 80 mM K+ stimulus
quantity measured: pIC50
Just so you know, pIC50 here is -log10 of the concentration in molar units; reply with that number alone.

Field: example entries. Status: answers known.
Requested field: pIC50. Item: `CN(C)c1cc(-c2cccc(F)c2)nc2ccc(Nc3cccc(N)n3)cc12`
5.53

Recorded pIC50 for `Nc1ccc2nc(-c3ccccc3)cc(N)c2c1` , please?
4.76

Query (molecule): `Nc1ccc2nc(-c3ccc(Br)cc3)cc(N)c2c1` ; field requested: pIC50
5.50

Reported pIC50, molecule `CN(C)c1cc(-c2cccc(F)c2)nc2ccc(NC3CC3)cc12` : ____
5.26

Given the entry `Nc1ccc2nc(-c3ccc(Cl)cc3)cc(N)c2c1` , report its measured pIC50.
4.44

Further cases:
State the recorded pIC50 for this entry: `Cc1c(Nc2ccc3nc(-c4cccc(F)c4)cc(N(C)C)c3c2)c(=O)n(-c2ccccc2)n1C`
5.27

Bench note: what pIC50 did `COCCNc1cc(-c2cccc(F)c2)nc2ccc(NC3CC3)cc12` show?
5.76

State the recorded pIC50 for this entry: `COc1ccc(-c2cc(N)c3cc(N)ccc3n2)cc1`
5.16

====

Entries annotated with measured pIC50
Target: N-type calcium channel (Homo sapiens)
Assay: N-channel FLIPR assay (inhibition of K+-evoked calcium flux in differentiated IMR32 cells)
Conditions: 80 mM K+ stimulus
In plain terms, pIC50 is the concentration in mol/L turned into minus its base-10 logarithm.

So what's the measured pIC50 for this one? `CN(C)c1cc(-c2cccc(Cl)c2)nc2ccc(NC3CC3)cc12`
5.14

Could you share which pIC50 value was measured for `Nc1ccc2nc(-c3ccccc3F)cc(N)c2c1` ?
4.09

Can you share its pIC50? I mean this compound: `CN(C)c1cc(-c2cccc(F)c2)nc2ccc(N3CCCC3)cc12`
5.04

Suppose we examine the compound `Nc1ccc2nc(-c3cccc(F)c3)cc(N)c2c1` ; what pIC50 value has been reported?
5.42

Look up pIC50 for this compound: `Nc1ccc2nc(-c3ccc(C4CCCCC4)cc3)cc(N)c2c1`
5.10

// switching to the query compound
GET /values?readout=pIC50&item= `Nc1ccc2nc(-c3ccccc3)cc(NCc3ccccc3)c2c1`
5.45

====

Measured pIC50 by item
Target: N-type calcium channel (Homo sapiens)
Test: N-channel FLIPR assay (inhibition of K+-evoked calcium flux in differentiated IMR32 cells)
Details: 80 mM K+ stimulus
On this scale, pIC50 is minus log10 of a concentration expressed in M (mol/L).

Solved entries:
Request the reported pIC50 associated with CN(C)c1cc(-c2cccc(N3CCOCC3)c2)nc2ccc(NC3CC3)cc12 [Example 55]
5.64

Which pIC50 value belongs to CCCNc1cc(-c2ccccc2)nc2ccc(N)cc12 [Example 7, 2-Phenyl-N4-propyl-quinoline-4,6-diamine] ?
5.70

Name the reported pIC50 value associated with the compound CN(C)c1ccc2nc(-c3cccc(F)c3)cc(N(C)C)c2c1 [Example 26]
5.31

Next:
# query: pIC50 of entry Nc1ccc2nc(-c3ccccc3Cl)cc(N)c2c1 [Example 15, 2-(2-Chlorophenyl)-quinoline-4,6-diamine]
5.38

Item CNc1ccc2nc(-c3cccc(F)c3)cc(NC)c2c1 [Example 37] has what recorded pIC50?
5.66

Requested read-out: pIC50. Entry: COc1cccc(-c2cc(N)c3cc(N)ccc3n2)c1 [Example 9]
5.57

====

Target: N-type calcium channel (Homo sapiens, UniProt Q00975)
Sequence (Q00975 whole entry): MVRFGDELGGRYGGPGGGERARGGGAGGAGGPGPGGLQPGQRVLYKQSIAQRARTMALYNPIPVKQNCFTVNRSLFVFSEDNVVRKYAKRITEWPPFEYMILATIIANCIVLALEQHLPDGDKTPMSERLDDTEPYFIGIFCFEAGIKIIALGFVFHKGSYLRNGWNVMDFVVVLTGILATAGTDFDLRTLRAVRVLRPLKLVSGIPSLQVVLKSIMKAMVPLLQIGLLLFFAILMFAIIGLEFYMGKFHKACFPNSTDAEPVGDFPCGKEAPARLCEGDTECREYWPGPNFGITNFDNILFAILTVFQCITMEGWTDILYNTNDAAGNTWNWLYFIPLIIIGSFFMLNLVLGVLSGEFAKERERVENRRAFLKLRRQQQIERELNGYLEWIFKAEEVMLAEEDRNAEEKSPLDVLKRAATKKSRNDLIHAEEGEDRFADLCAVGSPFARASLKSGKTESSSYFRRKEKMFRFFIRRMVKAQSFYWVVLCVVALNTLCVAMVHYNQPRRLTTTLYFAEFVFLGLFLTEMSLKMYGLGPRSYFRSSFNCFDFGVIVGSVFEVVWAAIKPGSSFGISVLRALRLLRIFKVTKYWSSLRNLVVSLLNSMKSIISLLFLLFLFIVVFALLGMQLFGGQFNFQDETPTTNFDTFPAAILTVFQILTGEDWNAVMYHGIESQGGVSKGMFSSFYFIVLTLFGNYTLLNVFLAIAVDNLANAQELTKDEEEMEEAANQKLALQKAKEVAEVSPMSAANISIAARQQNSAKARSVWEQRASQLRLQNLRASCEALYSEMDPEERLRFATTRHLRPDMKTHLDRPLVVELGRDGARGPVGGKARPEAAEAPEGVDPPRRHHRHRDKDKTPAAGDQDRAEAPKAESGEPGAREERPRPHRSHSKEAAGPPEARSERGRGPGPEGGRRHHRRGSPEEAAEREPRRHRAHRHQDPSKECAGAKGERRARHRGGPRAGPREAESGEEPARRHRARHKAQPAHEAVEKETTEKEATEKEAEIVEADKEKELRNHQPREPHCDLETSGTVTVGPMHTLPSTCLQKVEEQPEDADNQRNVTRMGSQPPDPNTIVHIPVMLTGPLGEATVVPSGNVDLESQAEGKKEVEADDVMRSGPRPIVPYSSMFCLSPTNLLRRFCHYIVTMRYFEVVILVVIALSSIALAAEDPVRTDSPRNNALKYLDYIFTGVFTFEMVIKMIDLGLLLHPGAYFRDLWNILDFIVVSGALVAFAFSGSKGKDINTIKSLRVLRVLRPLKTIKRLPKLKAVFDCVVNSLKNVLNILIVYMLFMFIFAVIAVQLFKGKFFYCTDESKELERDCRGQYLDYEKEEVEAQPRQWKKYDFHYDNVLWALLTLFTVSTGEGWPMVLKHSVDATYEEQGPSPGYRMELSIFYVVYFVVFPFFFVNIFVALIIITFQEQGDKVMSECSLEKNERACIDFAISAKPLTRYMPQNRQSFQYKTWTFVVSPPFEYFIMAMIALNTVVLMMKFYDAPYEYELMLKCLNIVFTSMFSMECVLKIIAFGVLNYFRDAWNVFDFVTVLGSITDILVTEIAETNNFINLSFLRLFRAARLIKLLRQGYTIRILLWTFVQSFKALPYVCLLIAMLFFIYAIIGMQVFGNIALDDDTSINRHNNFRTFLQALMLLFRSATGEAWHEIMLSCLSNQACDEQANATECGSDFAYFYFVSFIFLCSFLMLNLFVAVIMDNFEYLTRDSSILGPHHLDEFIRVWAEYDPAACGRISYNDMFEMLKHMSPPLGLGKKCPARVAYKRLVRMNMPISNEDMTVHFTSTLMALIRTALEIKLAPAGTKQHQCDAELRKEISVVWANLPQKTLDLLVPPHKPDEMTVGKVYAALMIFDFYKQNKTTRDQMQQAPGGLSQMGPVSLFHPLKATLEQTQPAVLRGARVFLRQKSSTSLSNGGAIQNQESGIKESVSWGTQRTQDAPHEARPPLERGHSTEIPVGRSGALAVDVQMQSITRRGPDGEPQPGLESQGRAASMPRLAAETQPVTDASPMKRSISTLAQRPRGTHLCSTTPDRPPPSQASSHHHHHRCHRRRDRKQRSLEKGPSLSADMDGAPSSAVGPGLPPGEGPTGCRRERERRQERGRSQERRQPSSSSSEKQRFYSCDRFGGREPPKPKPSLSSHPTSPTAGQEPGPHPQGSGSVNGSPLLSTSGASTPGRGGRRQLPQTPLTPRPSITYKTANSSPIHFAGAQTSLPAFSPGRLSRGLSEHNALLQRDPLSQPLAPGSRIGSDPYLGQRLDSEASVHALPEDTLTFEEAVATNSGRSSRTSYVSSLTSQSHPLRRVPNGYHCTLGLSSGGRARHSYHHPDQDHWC
Sequence (P54289 25-1103 partner): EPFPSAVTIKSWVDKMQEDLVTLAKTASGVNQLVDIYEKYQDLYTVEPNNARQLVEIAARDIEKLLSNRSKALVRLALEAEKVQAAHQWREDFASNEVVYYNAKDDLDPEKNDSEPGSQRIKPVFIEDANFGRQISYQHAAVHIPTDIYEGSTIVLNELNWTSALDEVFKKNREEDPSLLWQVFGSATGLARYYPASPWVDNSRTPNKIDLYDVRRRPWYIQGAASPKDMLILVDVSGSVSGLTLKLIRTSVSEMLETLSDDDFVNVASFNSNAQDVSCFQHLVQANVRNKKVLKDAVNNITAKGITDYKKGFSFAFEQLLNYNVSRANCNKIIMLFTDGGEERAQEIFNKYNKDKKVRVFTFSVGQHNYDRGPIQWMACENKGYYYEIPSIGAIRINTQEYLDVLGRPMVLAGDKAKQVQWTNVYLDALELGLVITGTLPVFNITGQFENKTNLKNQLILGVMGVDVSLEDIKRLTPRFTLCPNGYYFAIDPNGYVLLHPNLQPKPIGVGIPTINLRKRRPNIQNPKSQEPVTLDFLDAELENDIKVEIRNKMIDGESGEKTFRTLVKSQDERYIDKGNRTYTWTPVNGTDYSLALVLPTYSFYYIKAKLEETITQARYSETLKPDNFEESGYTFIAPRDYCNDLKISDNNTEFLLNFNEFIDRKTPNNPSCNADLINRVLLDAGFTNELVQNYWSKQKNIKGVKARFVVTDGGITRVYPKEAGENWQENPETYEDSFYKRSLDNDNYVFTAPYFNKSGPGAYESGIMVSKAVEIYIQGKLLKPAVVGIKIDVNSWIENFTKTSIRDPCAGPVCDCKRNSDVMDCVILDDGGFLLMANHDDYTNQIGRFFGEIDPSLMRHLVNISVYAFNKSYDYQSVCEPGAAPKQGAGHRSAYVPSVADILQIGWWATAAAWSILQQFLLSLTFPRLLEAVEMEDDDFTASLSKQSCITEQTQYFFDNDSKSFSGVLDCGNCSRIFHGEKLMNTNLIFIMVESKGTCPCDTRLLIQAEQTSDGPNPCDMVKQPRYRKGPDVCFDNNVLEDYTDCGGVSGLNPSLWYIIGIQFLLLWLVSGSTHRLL
Sequence (P54284 whole entry partner): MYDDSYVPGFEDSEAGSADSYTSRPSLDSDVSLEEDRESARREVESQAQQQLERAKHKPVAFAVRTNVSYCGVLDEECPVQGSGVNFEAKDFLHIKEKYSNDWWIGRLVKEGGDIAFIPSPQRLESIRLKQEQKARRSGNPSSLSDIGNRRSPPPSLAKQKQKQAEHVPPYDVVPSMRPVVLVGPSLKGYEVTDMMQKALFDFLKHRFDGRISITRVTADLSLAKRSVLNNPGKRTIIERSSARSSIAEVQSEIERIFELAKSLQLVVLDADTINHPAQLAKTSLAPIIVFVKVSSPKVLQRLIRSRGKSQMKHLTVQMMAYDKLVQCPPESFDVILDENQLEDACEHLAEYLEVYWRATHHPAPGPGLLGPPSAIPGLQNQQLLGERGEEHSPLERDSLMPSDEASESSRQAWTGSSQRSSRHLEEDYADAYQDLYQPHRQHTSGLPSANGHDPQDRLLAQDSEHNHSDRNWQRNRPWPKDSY
Assay: N-channel FLIPR assay (inhibition of K+-evoked calcium flux in differentiated IMR32 cells)
Settings: 80 mM K+ stimulus
quantity measured: IC50

Example results:
Which IC50 value belongs to `CN(C)c1cc(-c2cccc(F)c2)nc2ccc(N)cc12` ?
5.55 µM

Item `Nc1ccc2nc(-c3cccc(Cl)c3)cc(N)c2c1` has what recorded IC50?
4.83 µM

IC50 lookup needed for `CNc1ccc2nc(-c3ccccc3F)cc(N)c2c1` , thanks.
3.51 µM

***
State the recorded IC50 for this entry: `COc1ccccc1-c1cc(N)c2cc(N)ccc2n1`
10.5 µM
